Form field: pKd (one value per entry).
biological target: T1, Human VEGF 165 (human, UniProt P15692-4 27-191); assay: BLI, VEGF 165 on probe, conjugate as analyte, t = 0
T1 construct: Loaded on the BLI probe as the ligand; also called BLI ligand Human VEGF 165 (Avi tag, R&D Systems AVI-293-050); not shown: Avi tag
T1 sequence (P15692 other isoform, or with tags, fused parts or gaps limits assumed): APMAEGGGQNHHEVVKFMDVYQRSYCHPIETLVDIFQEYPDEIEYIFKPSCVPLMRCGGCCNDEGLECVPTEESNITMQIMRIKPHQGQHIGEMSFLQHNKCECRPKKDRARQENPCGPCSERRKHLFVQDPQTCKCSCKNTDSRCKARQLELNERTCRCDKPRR
By convention, pKd is the negative base-10 log of a molar concentration.

Solved entries (count: 3):
So what's the measured pKd for this one? Conjugate 13 (anti-VEGF VHH SEQ ID NO: 91 with Rigid linker SEQ ID NO: 31 on hyaluronic acid, intermediate 5-8) (VHH, C-terminal Cys of the peptide linker bound by its thiol to the maleimide of the organic linker MP2H on hyaluronic acid (830 kDa), Multivalent peptide-hyaluronic acid conjugate (MVP); peptide valency 72; Method 5 intermediate; also called BI VHH anti-VEGF MVP) VHH: DVQLVESGGGLVQPGGSLRLSCAASGRTFSSYSMGWFRQAPGKEREFVVAISKGGYKYDAVSLEGRFTISRDNAKNTVYLQINSLRPEDTAVYYCASSRAYGSSRLRLADTYEYWGQGTLVTVSS
10.96

Moving on to Conjugate 17 (anti-VEGF VHH SEQ ID NO: 91 on hyaluronic acid, intermediate 1-7) (VHH, peptide bound through the organic linker MP2H to hyaluronic acid (830 kDa); site of attachment not stated, Multivalent peptide-hyaluronic acid conjugate (MVP); peptide valency 90; Method 1 intermediate; also called BI VHH anti-VEGF MVP) VHH: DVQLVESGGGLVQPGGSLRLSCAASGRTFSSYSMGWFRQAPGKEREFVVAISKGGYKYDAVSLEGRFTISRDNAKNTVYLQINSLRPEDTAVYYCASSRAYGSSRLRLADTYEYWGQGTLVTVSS
11.40

Moving on to Conjugate 9 (anti-VEGF E1-1 SEQ ID NO: 81 with aH linker SEQ ID NO: 21 on hyaluronic acid, intermediate 5-9) (VHH, C-terminal Cys of the peptide linker bound by its thiol to the maleimide of the organic linker MP2H on hyaluronic acid (830 kDa), Multivalent peptide-hyaluronic acid conjugate (MVP); peptide valency 51; Method 5 intermediate) VHH: EVQLQASGGGFVQPGGSLRLSCAASGGGSDAGTMGWFRQAPGKEREFVSAISWAGTAWRYYADSVKGRFTISRDNSKNTVYLQMNSLRAEDTATYYCALGSYEMDHHYWGQGTQVTVSS
9.17

Continuing:
So what's the measured pKd for this one? Conjugate 11 (anti-VEGF E1-1 SEQ ID NO: 81 with aH linker SEQ ID NO: 21 on hyaluronic acid, intermediate 5-2) (VHH, C-terminal Cys of the peptide linker bound by its thiol to the maleimide of the organic linker MP2H on hyaluronic acid (830 kDa), Multivalent peptide-hyaluronic acid conjugate (MVP); peptide valency 47; Method 5 intermediate) VHH: EVQLQASGGGFVQPGGSLRLSCAASGGGSDAGTMGWFRQAPGKEREFVSAISWAGTAWRYYADSVKGRFTISRDNSKNTVYLQMNSLRAEDTATYYCALGSYEMDHHYWGQGTQVTVSS
8.98

Moving on to Conjugate 10 (anti-VEGF E1-1 SEQ ID NO: 81 with aH linker SEQ ID NO: 21 on hyaluronic acid, intermediate 2-4) (VHH, C-terminal Cys of the peptide linker bound by its thiol to the maleimide of the organic linker MP2H on hyaluronic acid (830 kDa), Multivalent peptide-hyaluronic acid conjugate (MVP); peptide valency 136; Method 2 intermediate; also called anti-VEGF E1-1 MVP (Method 2)) VHH: EVQLQASGGGFVQPGGSLRLSCAASGGGSDAGTMGWFRQAPGKEREFVSAISWAGTAWRYYADSVKGRFTISRDNSKNTVYLQMNSLRAEDTATYYCALGSYEMDHHYWGQGTQVTVSS
9.91
